# Study Target: T1, human NPY2 receptor (human, UniProt P49146 1-381)
# T1 construct: whole, on cells; also called hNPY2-R; hNPY2R
# T1 sequence (looked up): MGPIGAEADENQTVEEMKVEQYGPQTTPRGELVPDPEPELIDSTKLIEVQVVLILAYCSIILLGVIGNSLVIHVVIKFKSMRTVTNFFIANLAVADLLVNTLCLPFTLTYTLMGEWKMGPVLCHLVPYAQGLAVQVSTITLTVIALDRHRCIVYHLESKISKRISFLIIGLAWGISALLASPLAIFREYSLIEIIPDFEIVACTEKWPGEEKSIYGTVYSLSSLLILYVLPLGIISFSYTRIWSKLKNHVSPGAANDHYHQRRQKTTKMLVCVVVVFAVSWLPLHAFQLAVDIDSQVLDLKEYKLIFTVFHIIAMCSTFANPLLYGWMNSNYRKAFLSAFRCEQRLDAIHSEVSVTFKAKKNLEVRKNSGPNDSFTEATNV
# Experiment Summary: RLB (125I-PYY(1-36) displacement, hNPY2R membranes), peptide from DMSO stock
*1 amine or outer side, *2 acyl side, *3 side chain or, on linkers, in order; H or OH if unused. Side-chain parts run from the residue outwards. The star is where a group is joined. C18 diacid = O=C(O)CCCCCCCCCCCCCCCCC(=O)*; γGlu = O=C(O)[C@H](CCC(=O)[*:2])N[*:1]; Isovaleryl = CC(C)CC(=O)*; Ahx = NCCCCCC(=O)O
Property: Ki (nM)
Answer in nM, number only, no unit symbol.

Recall and state the measured Ki for Isovaleryl-APAK([Ahx-γGlu-C18 diacid])PEEDASPEEIQRYYVSLRHYYNWLTRQRY-NH2 [Compound 63] .
6.6

Reference for the values: patent US20260015399A1
